All figures here come from ChEMBL document CHEMBL1201862.

Listing: GI50 of selected compounds
# System: OVCAR-5
# protocol.details: NCI tumour cell line growth inhibition, 48 h
The source made the active and inactive calls. Cut-off read from the data, not from the text of the source: active = GI50 up to about 1.1 µM and inactive = higher.

>>> meas_value("CCC1C(c2ccccc2O)c2cc3c(cc2OC1N1CCOCC1)OCO3 (stereo unspecified)")
"14.9 µM (inactive)"
>>> meas_value("Cn1c(=O)c2[nH]c(CCC(=O)O)nc2n(C)c1=O")
"> 100 µM (inactive)"
>>> meas_value("BrC1=C(Br)C2(SCCS2)[C@H]2C[C@@H]1c1ccccc12")
"> 100 µM (inactive)"
>>> meas_value("CSc1ncc2c(n1)C(C#N)C1Sc3ccccc3N1C2=O (stereo unspecified)")
"> 100 µM (inactive)"
>>> meas_value("O=[N+]([O-])c1ccccc1S(=O)(=O)N1CCCc2cc(Cl)ccc21")
"> 93.1 µM (inactive)"

Dear colleague, I am looking for the recorded GI50 of the following compound: COc1cccc(C2c3cc4c(cc3OC(N3CCCC3)C2C)OCO4)c1OC (stereo unspecified)
3.67 µM (inactive)
